In this section we review reported LD50 values for a set of compounds.
procedure-text: acute toxicity after single oral administration to mice
study-conditions: mouse, in vivo, p.o.
Method: The filaricidal activity of the compounds of formula I can be determined, for example, on cotton rats (Sigmodon hispidus) which have been infected with Litomosoides carinii. […] The filaricidal activity is expressed as the percentage proportion of dead macrofilaria per treatment group. The ED90 is then determined by means of Probit analysis using the values from different dosage groups. […]
quantity-measured: LD50

smiles_representation=CN(C)C=Cc1n(N=Cc2ccc(N(C)C)cc2)cc[n+]1N=Cc1ccc(N(C)C)cc1.[Cl-] obs_value="312 to 625 mg/kg"
smiles_representation=CN(C)c1ccc(C=Nn2cc[n+](N=Cc3ccc(N(C)C)cc3)c2-c2ccccc2)cc1.[Cl-] obs_value="1250 to 2500 mg/kg"

The measured values listed here are drawn from patent US4814332A.
